Data provenance is the supplement of paper PMC9732359.

Listed here are sequences together with their documented protein stability index.
Experiment: protein stability index of a GFP-peptide fusion (yeast GPS) (PSI 1-4); higher = more stable; sorted into four equal gates, so the index is relative within each strain
Settings: doa10∆

Below, each entry is followed by its recorded protein stability index result.
>>> experimental_value("TEISGLKNVNKRAFENF [SMC3]")
3.28
>>> experimental_value("HIQVNQAPKQRRRTYRA [RPL17A]")
1.89
>>> experimental_value("QITKFPKYRDNLATWYH [SSN3]")
2.77
>>> experimental_value("DEKGNEIKVGKQRFQGC [ARP9]")
2.88
>>> experimental_value("REDMPFTAEGIVPDLII [RPB2]")
2.49

Asked: Need protein stability index, item HILLTELLAYQFASPVR [FAS2]
Given back: 1.81

Asked: So what's the measured protein stability index for this one? VSKKVDVRRLKKNVWRS [BRN1]
Given back: 2.54

Asked: Data request, read-out protein stability index, for NRTFTDPPFRIEEQGWG [TAF14]
Given back: 3.11

Asked: Reported protein stability index, sequence KREEKAMTIYWDDHTKK [CDC53] : ____
Given back: 2.5
